Experiment: Animal cytotoxicity, CCK-8 assay
Format: cell-based, bovine
Conditions: bovine, MDBK (Madin-Darby bovine kidney) cells
reported.metric: pIC50
Expect pIC50 as a plain number equal to -log10 of the molar concentration.

See these solved cases before continuing.
{"columns": ["compound", "reported.metric", "endpoint.value"],
 "data": [
  ["O=C1NC(=S)S/C1=C\\c1cn(Cc2ccccc2)c2ccc([N+](=O)[O-])cc12", "pIC50", 4.00],
  ["O=C1CSC(=S)N1/N=C/c1cn(Cc2ccc(F)cc2)c2ccc([N+](=O)[O-])cc12", "pIC50", 4.65],
  ["O=C1CSC(=S)N1/N=C/c1c[nH]c2ccc([N+](=O)[O-])cc12", "pIC50", 4.17]
]}

Form field pIC50, entry O=C1NC(=S)S/C1=C\c1cn(Cc2ccc(F)cc2)c2ccc([N+](=O)[O-])cc12 : 4.77

Form field pIC50, entry O=C1NC(=S)S/C1=C\c1c[nH]c2ccc([N+](=O)[O-])cc12 : 4.50

Reference source for all entries: paper PMC11901381
